- Assay Target: rat maltase (partially purified alpha-glucosidase from intestinal rat powder)
- Assay Explanation: Intestinal alpha-glucosidase assay, maltose substrate (Glucose GO Kit)
- Type: biochemical
Exercise: state measured IC50 for each of the compounds provided.
One number for each entry, in nM.

These recorded examples may help you get a feel for the data.
Compound | Scale Unit | IC50
OC[C@@H]1[C@@H](O)[C@H](O)[C@@H](O)CN1CCc1ccc(CCNc2cc(Cl)cc(-c3ncon3)c2)cc1 [Compound 1113] | nM | 20
CS(=O)(=O)c1cc(NCc2ccc(CN3C[C@H](O)[C@@H](O)[C@H](O)[C@H]3CO)cc2)cc(N2CCOCC2)c1 [Compound 1054] | nM | 57
OC[C@@H]1[C@@H](O)[C@H](O)[C@@H](O)CN1CCc1cn(CCNc2ccccc2)c2ccccc12 [Compound 1076] | nM | 250
[N-]=[N+]=Nc1ccc(NCCOCCN2C[C@H](O)[C@@H](O)[C@H](O)[C@H]2CO)c([N+](=O)[O-])c1 [Compound 1255] | nM | 33

Would you mind listing IC50 for each of the following compounds?
1. OC[C@@H]1[C@@H](O)[C@H](O)[C@@H](O)CN1CCCCCCNc1ccc(-c2ncccn2)cc1F [Compound 1229]
2. [N-]=[N+]=Nc1ccc(NCCNc2cc(Cl)cc(CCN3C[C@H](O)[C@@H](O)[C@H](O)[C@H]3CO)c2)c([N+](=O)[O-])c1 [Compound 1143]
3. OC[C@@H]1[C@@H](O)[C@H](O)[C@@H](O)CN1Cc1ccc(CNc2ccc(N3CCOCC3)cc2)cc1 [Compound 1068]
4. N#Cc1cc(NCc2ccc(CN3C[C@H](O)[C@@H](O)[C@H](O)[C@H]3CO)cc2)cc(-c2cccnn2)c1 [Compound 1064]

1. 24
2. 2060
3. 49
4. 2

Would you mind listing IC50 for each of the following compounds?
1. OC[C@@H]1[C@@H](O)[C@H](O)[C@@H](O)CN1CCc1ccc(CCNc2cc(Cl)cc(-c3noc(C4CCC4)n3)c2)cc1 [Compound 1122]
2. N#Cc1cc(NCc2cccc(CN3C[C@H](O)[C@@H](O)[C@H](O)[C@H]3CO)c2)cc(-c2cccnn2)c1 [Compound 1046]
3. Cc1cc(NCc2ccc(CN3C[C@H](O)[C@@H](O)[C@H](O)[C@H]3CO)cc2)cc(-c2ncccn2)c1 [Compound 1053]
4. [N-]=[N+]=Nc1ccc(NCCC23CC(CCN4C[C@H](O)[C@@H](O)[C@H](O)[C@H]4CO)(C2)C3)c([N+](=O)[O-])c1 [Compound 1103]

1. 717
2. 6
3. 2
4. 279

----------
- Assay Target: recombinant human GBA (beta-glucocerebrosidase) (Homo sapiens)
- Sequence (P04062 40-536): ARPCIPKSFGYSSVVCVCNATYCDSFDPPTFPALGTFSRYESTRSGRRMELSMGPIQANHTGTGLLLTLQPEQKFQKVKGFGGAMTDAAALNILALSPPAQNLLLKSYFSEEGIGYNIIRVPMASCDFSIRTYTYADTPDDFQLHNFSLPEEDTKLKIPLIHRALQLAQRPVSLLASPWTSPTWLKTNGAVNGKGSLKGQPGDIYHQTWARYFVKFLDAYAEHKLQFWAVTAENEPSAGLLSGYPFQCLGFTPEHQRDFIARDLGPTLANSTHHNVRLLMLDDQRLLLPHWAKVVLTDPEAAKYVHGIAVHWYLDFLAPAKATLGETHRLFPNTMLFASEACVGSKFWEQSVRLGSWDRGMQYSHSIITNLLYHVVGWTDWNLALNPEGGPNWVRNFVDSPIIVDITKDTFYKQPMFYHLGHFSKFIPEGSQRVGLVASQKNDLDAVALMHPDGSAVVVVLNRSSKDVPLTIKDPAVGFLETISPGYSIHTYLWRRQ
- Assay Explanation: Beta-glucocerebrosidase (GBA, glucosylceramidase) assay (4-methylumbelliferyl-beta-D-pyranoside substrate, fluorescence)
Property Label: IC50 (nM)
Answers are plain numbers, in nM.

Molecule Smiles | Scale Unit | IC50
COc1cc(NCCCCCCN2C[C@H](O)[C@@H](O)[C@H](O)[C@H]2CO)cc(-c2cnccn2)c1 | nM | 2070
N#Cc1cc(NCCCCCCN2C[C@H](O)[C@@H](O)[C@H](O)[C@H]2CO)cc(-c2ncccn2)c1 | nM | 974
[N-]=[N+]=Nc1ccc(NCCS(=O)(=O)CCCN2C[C@H](O)[C@@H](O)[C@H](O)[C@H]2CO)c([N+](=O)[O-])c1 | nM | 2990

IC50 reading for `OC[C@@H]1[C@@H](O)[C@H](O)[C@@H](O)CN1CCCCCCNc1cc(-c2ncccn2)cc(C2CC2)c1` : 2590
